Where these numbers come from: ChEMBL document CHEMBL3632597

- TARGET OF ASSAY: Mitogen-activated protein kinase 14 (Homo sapiens)
- Sequence (Q16539 whole entry): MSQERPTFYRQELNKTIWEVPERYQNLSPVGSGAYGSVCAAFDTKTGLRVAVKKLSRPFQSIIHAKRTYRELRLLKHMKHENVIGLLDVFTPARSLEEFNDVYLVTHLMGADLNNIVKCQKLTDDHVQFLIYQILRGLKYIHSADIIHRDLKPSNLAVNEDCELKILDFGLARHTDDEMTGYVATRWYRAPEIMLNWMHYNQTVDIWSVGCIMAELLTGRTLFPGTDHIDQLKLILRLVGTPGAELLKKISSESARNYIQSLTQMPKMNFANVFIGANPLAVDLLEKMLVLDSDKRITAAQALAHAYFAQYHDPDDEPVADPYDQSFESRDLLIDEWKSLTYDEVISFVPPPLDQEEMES
- ASSAY TEXT: Inhibition of human recombinant p38alpha expressed in Escherichia coli using ATF2 as substrate by proprietary radioisotopic protein kinase assay
PARAMETER MEASURED: IC50 (µM)
API: value field is a number in µM; no unit string.

// IC50 lookup, compound = Cc1ccc(F)c(-c2[nH]c(CNc3ccccc3F)nc2-c2ccc3ncnn3c2)n1 , result: 0.766

Cc1nc(-c2[nH]c(CNc3cccc(C(N)=O)c3)nc2-c2ccc3ncnn3c2)ccc1F yielded IC50 of 1.48

So, Cc1nc(-c2[nH]c(CNc3cccc(C#N)c3)nc2-c2ccc3ncnn3c2)ccc1F ? Its IC50 was 1.24
